Where these numbers come from: the supplement of paper PMC5412046

Assign AC50 for growth inhibition (log10 M) to each entry below.
System: SB.msgc-1
Assay Explanation: AC50 for growth inhibition (viability) (log10 M); higher = less potent
Particulars: SB.msgc-1 (sporadic gastric cancer)
// response body must contain only the number

## Task // query AC50 for growth inhibition (log10 M) value for entry NC(=O)Nc1sc(-c2ccc(F)cc2)cc1C(N)=O [TPCA-1]
## Result -5.48

## Task // query AC50 for growth inhibition (log10 M) value for entry CC(=O)N(C)C1(c2ccccc2)CCN(CCC[C@]2(c3ccc(Cl)c(Cl)c3)CCCN(C(=O)c3ccccc3)C2)CC1 [Osanetant]
## Result -4.78

## Task // query AC50 for growth inhibition (log10 M) value for entry c1nc2c(NC3CCCCC3)nc(Nc3ccc(N4CCOCC4)cc3)nc2[nH]1 [Reversine]
## Result -4.73

## Task // query AC50 for growth inhibition (log10 M) value for entry NC(=O)[C@@H](CCC(F)(F)F)N(Cc1ccc(-c2ncon2)cc1F)[S+](=O)([O-])c1ccc(Cl)cc1 [Avagacestat]
## Result -4.83

## Task // query AC50 for growth inhibition (log10 M) value for entry "C[C@@H](Oc1cc(-n2cnc3ccc(CN4CCN(C)CC4)cc32)sc1C(N)=O)c1ccccc1C(F)(F)F"
## Result -7.13

## Task // query AC50 for growth inhibition (log10 M) value for entry CC(C)CN(C[C@@H](O)[C@H](Cc1ccccc1)NC(=O)O[C@H]1CO[C@H]2OCC[C@H]21)S(=O)(=O)c1ccc(N)cc1 [Darunavir]
## Result -5.63

## Task // query AC50 for growth inhibition (log10 M) value for entry "COC1=CC(=CC(=C1)C2=CC=C3N=CC\4=C(N(C(=O)\C=C4)C5=CC(=C(C=C5)N6CCNCC6)C(F)(F)F)C3=C2)OC"
## Result -5.43

----------
Assign area under the dose-response curve to each entry below.
Test system: SB.mhdgc-1
Assay Explanation: area under the dose-response curve of % viability (trapezoidal, 11 doses) (% viability x log10 concentration); higher = less cytotoxic
Particulars: SB.mhdgc-1 (hereditary c.1380delA CDH1 gastric cancer)
Structures can show the parent of a compound that is named as a salt.
// response body must contain only the number

## Task // query area under the dose-response curve value for entry CCC(CC)[C@H](NC(C)=O)[C@@H]1[C@H](O)[C@@H](C(=O)O)C[C@H]1NC(=N)N [Peramivir] (top concentration 46.0829 µM)
## Result 525

## Task // query area under the dose-response curve value for entry COc1ccc(/C=C\c2cc(OC)c(OC)c(OC)c2)cc1NC(=O)[C@H](N)CO [Ombrabulin] (top concentration 46.0829 µM)
## Result 252

## Task // query area under the dose-response curve value for entry CC1=C(C)C2=C(S1)[N]3C(=NN=C3[C@H](CC(=O)OC(C)(C)C)/N=C2/C4=CC=C(Cl)C=C4)C [JQ1] (top concentration 46.0829 µM)
## Result 450

## Task // query area under the dose-response curve value for entry COC[C@H](NC(=O)c1cnc(C)s1)C(=O)N[C@@H](COC)C(=O)N[C@@H](Cc1ccccc1)C(=O)[C@@]1(C)CO1 [Oprozomib] (top concentration 46.0829 µM)
## Result 242

## Task // query area under the dose-response curve value for entry Cc1nc2c([nH]1)-c1ccccc1N(C(=O)c1ccc(NC(=O)c3ccccc3-c3ccccc3)cc1)CC2 [Conivaptan hydrochloride] (top concentration 46.0829 µM)
## Result 503
